GI50 for assorted molecules
system: T47D; assay: Antiproliferative activity against human T47D cells incubated for 48 hrs by SRB assay; type: functional

QUERY_SMILES	GI50
C[C@]12C(=O)C=CC=C1[C@H](O)[C@H]1O[C@]3([C@@H]4C[C@]5(C)C(=O)O[C@H]4C[C@@]5(C)O)CC[C@@]4(O3)[C@H]1[C@@H]2CC[C@]4(C)O	6.4 µM
C[C@]1(O)CC[C@H]2[C@H]3[C@H](O[C@]4([C@@H]5C[C@]6(C)C(=O)O[C@H]5C[C@@]6(C)O)CC[C@@]31O4)[C@@H](O)[C@]13O[C@H]1C=CC(=O)[C@]23C	> 10 µM

Could you now look at the following molecule, please?
Summary line: CC1=C(C)C(=O)O[C@@H]([C@](C)(O)[C@H]2CC[C@H]3[C@@H]4[C@@H](O)C=C5[C@@H](O)C=CC(=O)[C@]5(C)[C@H]4CC[C@]23CO)C1 , T47D, reported GI50 = > 10 µM
